Biological target: Aspartate--tRNA(Asp/Asn) ligase (Mycobacterium tuberculosis (strain ATCC 25618 / H37Rv))
Assay: Assay for Asp RNA synthetase-1 from Mycobacterium tuberculosis
Type: functional
Set-up: scale not given: in the data most compounds retested in dose-response had high values
Details: 30 µM
Measured Percent Effect, listed per entry.
Observable: Percent Effect (%)

[[record]]
compound = "O=C(COc1cccc2c1CCC2=O)NCCSc1ccccc1"
tested_system = "Aspartate--tRNA(Asp/Asn) ligase (Mycobacterium tuberculosis (strain ATCC 25618 / H37Rv))"
observable = "Percent Effect"
measured_number = 3.02

[[record]]
compound = "CCN1CCN(C2CCN(Cc3cc(C)on3)CC2)C1=O"
tested_system = "Aspartate--tRNA(Asp/Asn) ligase (Mycobacterium tuberculosis (strain ATCC 25618 / H37Rv))"
observable = "Percent Effect"
measured_number = -3.97

[[record]]
compound = "Cc1nc(C)n(CC2CN(c3ncnc4[nH]ccc34)CCO2)n1 (configuration not stated)"
tested_system = "Aspartate--tRNA(Asp/Asn) ligase (Mycobacterium tuberculosis (strain ATCC 25618 / H37Rv))"
observable = "Percent Effect"
measured_number = 0.364

[[record]]
compound = "COc1ccc(COCC(O)CNC(=O)c2cc(C)cc(C)c2)cc1 (configuration not stated)"
tested_system = "Aspartate--tRNA(Asp/Asn) ligase (Mycobacterium tuberculosis (strain ATCC 25618 / H37Rv))"
observable = "Percent Effect"
measured_number = -0.859

[[record]]
compound = "Cc1nccnc1N1CCC2(CCCN(C3CCOCC3)C2=O)C1 (configuration not stated)"
tested_system = "Aspartate--tRNA(Asp/Asn) ligase (Mycobacterium tuberculosis (strain ATCC 25618 / H37Rv))"
observable = "Percent Effect"
measured_number = -1.21

[[record]]
compound = "COc1ccc(F)cc1C(=O)N(C)Cc1cc(C)on1"
tested_system = "Aspartate--tRNA(Asp/Asn) ligase (Mycobacterium tuberculosis (strain ATCC 25618 / H37Rv))"
observable = "Percent Effect"
measured_number = -3.3

[[record]]
compound = "Cc1ccc(NC2CCN(C(=O)COc3cccnc3)CC2)nn1"
tested_system = "Aspartate--tRNA(Asp/Asn) ligase (Mycobacterium tuberculosis (strain ATCC 25618 / H37Rv))"
observable = "Percent Effect"
measured_number = -4.47

[[record]]
compound = "Nc1nc(C2CCN(C(=O)c3cncs3)CC2)cs1"
tested_system = "Aspartate--tRNA(Asp/Asn) ligase (Mycobacterium tuberculosis (strain ATCC 25618 / H37Rv))"
observable = "Percent Effect"
measured_number = -0.134

[[record]]
compound = "C[C@H](O)CNC(=O)c1cnc(-c2ccccc2)nc1O"
tested_system = "Aspartate--tRNA(Asp/Asn) ligase (Mycobacterium tuberculosis (strain ATCC 25618 / H37Rv))"
observable = "Percent Effect"
measured_number = 2.44

[[record]]
compound = "c1nc2c(c(C3CC3)n1)CCN(Cc1ccoc1)CC2"
tested_system = "Aspartate--tRNA(Asp/Asn) ligase (Mycobacterium tuberculosis (strain ATCC 25618 / H37Rv))"
observable = "Percent Effect"
measured_number = 2.3

[[record]]
compound = "CC(C)c1csc(C2CCCN(C(=O)c3ccc(=O)n(C)n3)C2)n1 (configuration not stated)"
tested_system = "Aspartate--tRNA(Asp/Asn) ligase (Mycobacterium tuberculosis (strain ATCC 25618 / H37Rv))"
observable = "Percent Effect"
measured_number = -1.11

[[record]]
compound = "CCc1nc(CN2CCCC(NCc3ncc(C(C)(C)C)o3)C2)no1 (configuration not stated)"
tested_system = "Aspartate--tRNA(Asp/Asn) ligase (Mycobacterium tuberculosis (strain ATCC 25618 / H37Rv))"
observable = "Percent Effect"
measured_number = 5.85

